Source of measurements: patent US20230416335A1

# ASSAYED_TARGET: … (SEQ ID NO: 1)-HLA-A*02 complex (human)
# EXPERIMENT_DESCRIPTION: SPR (BIAcore) or BLI (Octet) per Example 3, immobilised biotinylated pHLA, 25 C
Overview of reported t1/2 across a group of binders:

BINDER	UNIT_OF_MEASUREMENT	t1/2
ImmTAC molecule a79b75 (TCR-anti-CD3 fusion) (TCR, part only; not given: anti-CD3 scFv, linker, constant regions, not shown: a dimerising Fc or GST) TCR alpha, part: GDAKTTQPNSMESNEEEPVHLPCNHSTISGTDYIHWYRQLPSQGPEYVIHGLTSNVNNRMASLAIAEDRKSSTLILHRATLRDAAVYYCILILGHSRLGNYIATFGKGTKLSVIP TCR beta, part: DGGITQSPKYLFRKEGQNVTLSCEQNLNHDAMYWYRQDPGQGLRLIYYSQIMGDEQKGDIAEGYSVSREKKESFPLTVTSAQKNPTAFYLCASSWWTGGSAPISFGPGTRLTVT	h	16.9
ImmTAC molecule a28b57 (TCR-anti-CD3 fusion) (TCR, part only; not given: anti-CD3 scFv, linker, constant regions, not shown: a dimerising Fc or GST) TCR alpha, part: GDAKTTQPNSMESNEEEPVHLPCNHSTISGTDYIHWYRQLPSQGPEYVIHGLTSNVNNRMASLAIAEDRKSSTLILHRATLRDAAVYYCILILGHSRAGNYIATFGKGTKLSVIP TCR beta, part: DGGITQSPKYLFRKEGQNVTLSCEQNLNHDAMYWYRQDPGQGLRLIYYSQIMGDEQKGDIAEGYSVSREKKESFPLTVTSAQKNPTAFYLCASSWWTSGASPISFGPGTRLTVT	h	8.3
ImmTAC molecule a79b58 (TCR-anti-CD3 fusion) (TCR, part only; not given: anti-CD3 scFv, linker, constant regions, not shown: a dimerising Fc or GST) TCR alpha, part: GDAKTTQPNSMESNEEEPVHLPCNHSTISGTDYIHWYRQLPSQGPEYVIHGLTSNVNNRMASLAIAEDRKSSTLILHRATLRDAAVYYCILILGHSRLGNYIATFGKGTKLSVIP TCR beta, part: DGGITQSPKYLFRKEGQNVTLSCEQNLNHDAMYWYRQDPGQGLRLIYYSQIMGDEQKGDIAEGYSVSREKKESFPLTVTSAQKNPTAFYLCASSWWTGGSSPISFGPGTRLTVT	h	28.7
